Origin of values: patent US8431596B2

Items are presented alongside their recorded pIC50.
target: AXL (human catalytic domain) (Homo sapiens, UniProt P30530); construct: purchased Upstate Ltd. 14-512; assay: AXL (human catalytic domain) Enzyme Activity Assay (IMAP fluorescence polarisation); format: biochemical; conditions: further data set (WW-001 through WW-169, XX-001 through XX-469, YY-001 through YY-016, ZZ-001 through ZZ-003); 150 μM ATP
Sequence (P30530 473-894): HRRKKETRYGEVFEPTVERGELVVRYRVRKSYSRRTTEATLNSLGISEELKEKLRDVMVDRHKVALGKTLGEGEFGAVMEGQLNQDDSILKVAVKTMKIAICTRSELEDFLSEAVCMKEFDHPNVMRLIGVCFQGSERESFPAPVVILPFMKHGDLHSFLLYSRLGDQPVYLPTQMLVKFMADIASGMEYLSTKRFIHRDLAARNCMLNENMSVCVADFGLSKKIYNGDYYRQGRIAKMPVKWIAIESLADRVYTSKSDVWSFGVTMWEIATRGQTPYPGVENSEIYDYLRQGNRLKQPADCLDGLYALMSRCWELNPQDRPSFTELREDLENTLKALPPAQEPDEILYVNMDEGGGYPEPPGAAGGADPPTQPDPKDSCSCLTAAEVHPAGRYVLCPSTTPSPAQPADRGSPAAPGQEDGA
pIC50: −log10 of the molar value.
attribute-measured: pIC50

>>> result("O=C(Nc1cccc(-c2cccc3nc(Nc4ccc(OCCN5CCCC5)cc4)nn23)c1)c1ccno1")
"6.00 to 7.00"
>>> result("COc1ccc(-c2cccc3nc(Nc4ccc(OCCNCc5ccccc5)cc4)nn23)cc1")
"5.00 to 6.00"
>>> result("O=C(Cc1cccc(Cl)c1)Nc1cccc(-c2cccc3nc(Nc4ccc(OCCN5CCCC5)cc4)nn23)c1")
"5.00 to 6.00"
>>> result("O=C(Nc1nc2cccc(-c3cc[nH]c3)n2n1)C1CC1")
"5.00 to 6.00"
>>> result("Cc1ccccc1CNc1cccc(-c2cccc3nc(Nc4ccc(OCCN5CCCC5)cc4)nn23)c1")
"6.00 to 7.00"
>>> result("CCS(=O)(=O)n1cc(-c2cccc3nc(Nc4ccc(OCCN5CCCC5)cc4)nn23)cn1")
"≥ 7.00"
>>> result("CCN(CC)CCOc1cccc(Nc2nc3ccnc(-c4ccc5c(c4)OCCO5)n3n2)c1")
"6.00 to 7.00"
>>> result("CCN(CC)CCOc1cc(Nc2nc3cccc(-c4ccc5[nH]ccc5c4)n3n2)ccn1")
"≥ 7.00"
>>> result("CC(C)(C)c1ccc(-c2cccc3nc(NC(=O)C4CC4)nn23)cc1")
"5.00 to 6.00"
>>> result("c1cc(OCc2ccncc2)cc(-c2cccc3nc(Nc4ccc(OCCN5CCCC5)cc4)nn23)c1")
"6.00 to 7.00"
